study.target: APOL1 (tet-inducible transgenic APOL1 T-REx-HEK293 cell lines) (Homo sapiens, UniProt O14791)
Sequence (O14791 whole entry S342G/I384M, form open): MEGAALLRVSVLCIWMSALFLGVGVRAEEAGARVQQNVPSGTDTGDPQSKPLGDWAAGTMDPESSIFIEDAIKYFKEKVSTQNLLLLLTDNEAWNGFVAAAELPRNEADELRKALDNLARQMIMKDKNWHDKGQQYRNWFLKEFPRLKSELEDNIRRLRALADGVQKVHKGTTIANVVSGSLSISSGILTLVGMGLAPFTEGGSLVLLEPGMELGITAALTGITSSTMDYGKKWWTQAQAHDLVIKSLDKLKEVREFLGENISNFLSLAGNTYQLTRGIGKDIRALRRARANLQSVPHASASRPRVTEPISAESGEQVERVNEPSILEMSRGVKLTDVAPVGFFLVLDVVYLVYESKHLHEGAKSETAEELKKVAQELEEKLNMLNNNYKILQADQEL
protocol.notes: MultiTox-Fluor Multiplex Cytotoxicity Assay for APOL1 inhibitor properties
Assay type: cell-based
condition.details: APOL1 induced with 50 ng/mL tet, 24 hours with compound, ratio of dead to live cells, top concentration 10 μM; APOL1 variant (G0/G1/G2) not stated; read-out: IP50 (nM) (i.e., IC50 for cell proliferation)
Recorded IC50 values for a group of compounds are listed next.
measurement.type: IC50

INSERT INTO results (compound, assay_result) VALUES
  ('Cc1cc([C@@]2(O)C[C@@H](c3cn(C)nn3)N[C@@H](C)C2)ccc1C(F)(F)F [Compound 34]', '≤ 50 nM'),
  ('C[C@H]1C[C@@](C(N)=O)(c2ccc(Cl)cn2)C[C@@H](c2cn(C)nn2)N1 [Compound 64]', '≥ 500 nM'),
  ('C[C@H]1C[C@@](CO)(c2ccc(C(F)(F)F)cc2)C[C@@H](c2cn(C)nn2)N1 [Compound 65]', '50 to 500 nM'),
  ('C[C@H]1C[C@@](O)(c2ccc3nnn(C)c3c2)C[C@@H](c2cn(C)nn2)N1 [Compound 57]', '≥ 500 nM'),
  ('C[C@H]1C[C@@](O)(c2ccnc(C(F)(F)F)c2)C[C@@H](c2cn(C)nn2)N1 [Compound 35]', '≥ 500 nM'),
  ('CC1CC(O)(c2ccc(C(F)(F)F)cc2)CC(c2c[nH]nn2)N1 (centres unmarked) [Compound 62]', '≤ 50 nM'),
  ('C[C@H]1C[C@@](C(N)=O)(c2ccc(C(F)(F)F)cc2)C[C@@H](c2cn(C)nn2)N1 [Compound 67]', '50 to 500 nM'),
  ('Cc1cc([C@@]2(O)C[C@@H](c3cn(C)nn3)N[C@@H](C)C2)ccc1Cl [Compound 26]', '≤ 50 nM'),
  ('C[C@H]1C[C@@](O)(c2ccc3c(c2)CC(C)(C)O3)C[C@@H](c2cn(C)nn2)N1 [Compound 31]', '≥ 500 nM'),
  ('C[C@H]1C[C@@](C#N)(c2ccc(C(F)(F)F)cc2)C[C@@H](c2cn(C)nn2)N1 [Compound 46]', '50 to 500 nM'),
  ('C[C@H]1C[C@@](O)(c2ccccc2)C[C@@H](c2cn(C)nn2)N1 [Compound 7]', '≥ 500 nM'),
  ('C[C@H]1C[C@@](O)(CS(=O)(=O)c2ccc(Br)cc2)C[C@@H](c2cn(C)nn2)N1 [Compound 45]', '≥ 500 nM'),
  ('C[C@H]1C[C@@](O)(c2ccc(C(F)(F)F)c(C(F)(F)F)c2)C[C@@H](c2cn(C)nn2)N1 [Compound 51]', '≤ 50 nM'),
  ('CC(C)c1ccc([C@@]2(O)C[C@@H](c3cn(C)nn3)N[C@@H](C)C2)cc1 [Compound 8]', '≤ 50 nM'),
  ('C[C@H]1C[C@@](O)(c2ccc3c(c2)CCC3(F)F)C[C@@H](c2cn(C)nn2)N1 [Compound 41]', '< 10000 nM'),
  ('C[C@H]1C[C@@](O)(c2ccc(Cl)cc2F)C[C@@H](c2cn(C)nn2)N1 [Compound 22]', '≤ 50 nM'),
  ('C[C@H]1C[C@@](O)(c2ccc(Cl)c(F)c2)C[C@@H](c2cn(C)nn2)N1 [Compound 13]', '≤ 50 nM'),
  ('C[C@H]1C[C@@](O)(c2ccc(Cl)nc2)C[C@@H](c2cn(C)nn2)N1 [Compound 17]', '50 to 500 nM'),
  ('C[C@H]1C[C@@](O)(c2ccc(C(F)(F)F)c(Cl)c2)C[C@@H](c2cn(C)nn2)N1 [Compound 36]', '≤ 50 nM'),
  ('C[C@H]1C[C@@](O)(c2csc(C(F)(F)F)c2)C[C@@H](c2cn(C)nn2)N1 [Compound 14]', '50 to 500 nM'),
  ('C[C@H]1C[C@@](O)(c2ccc3cn(C)nc3c2)C[C@@H](c2cn(C)nn2)N1 [Compound 54]', '≥ 500 nM'),
  ('C[C@H]1C[C@@](O)(c2cccc(C(F)(F)F)c2)C[C@@H](c2cn(C)nn2)N1 [Compound 48]', '50 to 500 nM'),
  ('C[C@H]1C[C@@](O)(c2ccc(C(F)F)cc2)C[C@@H](c2cn(C)nn2)N1 [Compound 38]', '≤ 50 nM'),
  ('C[C@H]1C[C@@](O)(c2ccc(C#N)cc2)C[C@@H](c2cn(C)nn2)N1 [Compound 30]', '50 to 500 nM'),
  ('COc1cc([C@@]2(O)C[C@@H](c3cn(C)nn3)N[C@@H](C)C2)ccc1C(F)(F)F [Compound 28]', '≤ 50 nM'),
  ('C[C@H]1C[C@@](O)(c2ccc3c(c2)OCC3)C[C@@H](c2cn(C)nn2)N1 [Compound 53]', '≥ 500 nM'),
  ('C[C@H]1C[C@@](O)(c2ccc(Cl)cn2)C[C@@H](c2cn(C)nn2)N1 [Compound 18]', '50 to 500 nM'),
  ('C[C@H]1C[C@@](O)(c2ccc3c(c2)nnn3C)C[C@@H](c2cn(C)nn2)N1 [Compound 55]', '≥ 500 nM'),
  ('C[C@H]1C[C@@](O)(c2ccc(C3CC3)cc2)C[C@@H](c2cn(C)nn2)N1 [Compound 29]', '≤ 50 nM'),
  ('C[C@H]1C[C@@](O)(c2ccc(Cl)c(OC(F)(F)F)c2)C[C@@H](c2cn(C)nn2)N1 [Compound 23]', '≤ 50 nM'),
  ('COc1cc(Cl)ccc1[C@@]1(O)C[C@@H](c2cn(C)nn2)N[C@@H](C)C1 [Compound 20]', '≥ 500 nM'),
  ('CC1CC(O)(c2cccc(Cl)c2)CC(c2cnn(CCS(C)(=O)=O)c2)N1 (centres unmarked) [Compound 2]', '50 to 500 nM');

----------
Reported IC50 values for a set of compounds
study.target: APOL1 (tet-inducible transgenic APOL1 T-REx-HEK293 cell lines) (Homo sapiens)
protocol.notes: MultiTox-Fluor Multiplex Cytotoxicity Assay for APOL1 inhibitor properties
Format: cell-based
condition.details: APOL1 induced with 50 ng/mL tet, 24 hours with compound, ratio of dead to live cells, top concentration 10 μM; APOL1 variant (G0/G1/G2) not stated; read-out: IP50 (nM) (i.e., IC50 for cell proliferation)
measurement.type: IC50

INSERT INTO assay_data (compound, measurement_type, assay_result) VALUES
  ('C[C@H]1C[C@@](O)(c2ccc(Br)cc2)C[C@@H](c2cn(C)nn2)N1 [Compound 27]', 'IC50', '≤ 50 nM'),
  ('Cc1cc(Cl)ccc1[C@@]1(O)C[C@@H](c2cn(C)nn2)N[C@@H](C)C1 [Compound 21]', 'IC50', '50 to 500 nM'),
  ('C[C@H]1C[C@@H](c2ccc(C(F)(F)F)cc2)C[C@@H](c2cn(C)nn2)N1 [Compound 66]', 'IC50', '50 to 500 nM'),
  ('C[C@H]1C[C@@](O)(c2ccc(C(F)(F)F)cc2)C[C@@H](c2cn(C)nn2)N1 [Compound 16]', 'IC50', '≤ 50 nM'),
  ('C[C@H]1C[C@@](O)(c2ccc3c(c2)C2(CCO3)CC2)C[C@@H](c2cn(C)nn2)N1 [Compound 32]', 'IC50', '50 to 500 nM'),
  ('C[C@H]1C[C@@](O)(c2ccc(Cl)c(C(F)(F)F)c2)C[C@@H](c2cn(C)nn2)N1 [Compound 33]', 'IC50', '≤ 50 nM'),
  ('C[C@H]1C[C@@](O)(c2cccc(Cl)c2)C[C@@H](c2cn(C)nn2)N1 [Compound 3]', 'IC50', '50 to 500 nM'),
  ('C[C@H]1C[C@@](O)(c2ccc(C(F)(F)F)cc2O)C[C@@H](c2cn(C)nn2)N1 [Compound 44]', 'IC50', '50 to 500 nM'),
  ('Cc1ccc([C@@]2(O)C[C@@H](c3cn(C)nn3)N[C@@H](C)C2)cc1F [Compound 11]', 'IC50', '50 to 500 nM'),
  ('C[C@H]1C[C@@](O)(c2ccc(C(C)(F)F)cc2)C[C@@H](c2cn(C)nn2)N1 [Compound 39]', 'IC50', '≤ 50 nM'),
  ('C[C@H]1C[C@@](O)(c2ccc(C(F)(F)F)c(F)c2)C[C@@H](c2cn(C)nn2)N1 [Compound 25]', 'IC50', '≤ 50 nM');

----------
study.target: APOL1 (tet-inducible transgenic APOL1 T-REx-HEK293 cell lines) (Homo sapiens, UniProt O14791)
protocol.notes: MultiTox-Fluor Multiplex Cytotoxicity Assay for APOL1 inhibitor properties
Type: cell-based
condition.details: APOL1 induced with 50 ng/mL tet, 24 hours with compound, ratio of dead to live cells, top concentration 10 μM; APOL1 variant (G0/G1/G2) not stated; read-out: IP50 (nM) (i.e., IC50 for cell proliferation)
measurement.type: IC50

INSERT INTO measurements (compound, measurement_type, assay_result) VALUES
  ('C[C@H]1C[C@@](O)(c2ccc(Cl)c(C(=O)N(C)C)c2)C[C@@H](c2cn(C)nn2)N1 [Compound 24]', 'IC50', '50 to 500 nM'),
  ('C[C@H]1C[C@@](C#N)(c2ccc(Cl)cn2)C[C@@H](c2cn(C)nn2)N1 [Compound 63]', 'IC50', '≥ 500 nM'),
  ('C[C@H]1C[C@@](O)(c2ccc(C(F)(F)F)nc2)C[C@@H](c2cn(C)nn2)N1 [Compound 37]', 'IC50', '50 to 500 nM'),
  ('C[C@H]1C[C@@](O)(c2ccc3cn[nH]c3c2)C[C@@H](c2cn(C)nn2)N1 [Compound 52]', 'IC50', '≤ 50 nM'),
  ('C[C@H]1C[C@@](O)(c2ccc(F)c(Cl)c2)C[C@@H](c2cn(C)nn2)N1 [Compound 9]', 'IC50', '50 to 500 nM'),
  ('C[C@H]1C[C@@](O)(c2ccc3c(cnn3C)c2)C[C@@H](c2cn(C)nn2)N1 [Compound 56]', 'IC50', '≥ 500 nM'),
  ('C[C@H]1C[C@@](O)(c2ccc(F)cc2)C[C@@H](c2cn(C)nn2)N1 [Compound 15]', 'IC50', '≥ 500 nM'),
  ('Cc1nn(C)c2ccc([C@@]3(O)C[C@@H](c4cn(C)nn4)N[C@@H](C)C3)cc12 [Compound 59]', 'IC50', '50 to 500 nM');
